Reference source: BindingDB's records for doi:10.1016/j.bmc.2016.08.020

- assay.details: Activation of p75NTR in mouse hippocampal neurons assessed as increase in cell survival after 48 hrs by MTT assay
measurement.type: pEC50
// pEC50 here means minus log10 of the molar concentration (mol/L)

Look up and state reported pEC50 for CCC(C)C(N)C(=O)NCCN1CCOCC1 (stereo unspecified)
7.70
